# Tested on: ginsenoside glycosidase I from ginseng plants
# assay-comment: Hydrolysis of ginsenosides with fraction 52 (ginsenoside glycosidase I) from ginseng plant
# Assay type: biochemical
# test-conditions: Fraction 52; substrate 0.5%; 50° C., pH 5.0, 18 hours
Assign Percentage of Rd in the reaction product to each entry below.
All answers are understood in %, so give the number only.

Value of Percentage of Rd in the reaction product reported for the compound CC(C)=CCC[C@](C)(O[C@@H]1O[C@H](CO[C@@H]2O[C@@H](CO)[C@H](O)[C@H]2O)[C@@H](O)[C@H](O)[C@H]1O)[C@H]1CC[C@]2(C)[C@@H]1[C@H](O)C[C@@H]1[C@@]3(C)CC[C@H](O[C@@H]4O[C@H](CO)[C@@H](O)[C@H](O)[C@H]4O[C@@H]4O[C@H](CO)[C@@H](O)[C@H](O)[C@H]4O)C(C)(C)[C@@H]3CC[C@]12C [Rc, ginsenoside Rc] is 45

Value of Percentage of Rd in the reaction product reported for the compound CC(C)=CCC[C@](C)(O[C@@H]1O[C@H](CO[C@@H]2OC[C@H](O)[C@H](O)[C@H]2O)[C@@H](O)[C@H](O)[C@H]1O)[C@H]1CC[C@]2(C)[C@@H]1[C@H](O)C[C@@H]1[C@@]3(C)CC[C@H](O[C@@H]4O[C@H](CO)[C@@H](O)[C@H](O)[C@H]4O[C@@H]4O[C@H](CO)[C@@H](O)[C@H](O)[C@H]4O)C(C)(C)[C@@H]3CC[C@]12C [Rb2, ginsenoside Rb2] is 35

Value of Percentage of Rd in the reaction product reported for the compound CC(C)=CCC[C@](C)(O[C@@H]1O[C@H](CO)[C@@H](O)[C@H](O)[C@H]1O)[C@H]1CC[C@]2(C)[C@@H]1[C@H](O)C[C@@H]1[C@@]3(C)CC[C@H](O[C@@H]4O[C@H](CO)[C@@H](O)[C@H](O)[C@H]4O[C@@H]4O[C@H](CO)[C@@H](O)[C@H](O)[C@H]4O)C(C)(C)[C@@H]3CC[C@]12C [Rd, ginsenoside Rd] is 60

The measurements presented in this section are drawn from patent US7759101B2.
